Target or system: pooled human IgG
Measured attribute: Enzyme Activity Endpoint Assay (purified): Fc (ng/µL)
Answers are plain numbers, in ng/µL.

Challenge: Recorded Enzyme Activity Endpoint Assay (purified): Fc for PRT-532 (protein) MANQEIRYSEETPKTITSIWTKGVTPPTDFIKNEDVLHAPYIANQGWYDITKTFNGKDDLLCGAATAGNMLHWWFDQNKEEIENYLKKHPEKQKINFNGEQMFDVKEAIDTKDSQTDSKLFEYFKDKAFPYLSTKHLGVMPDLVLDMFINGYYLSLGKHGPTPVKRGTKDPRGGIFDAVFTRGDQSKLLTARHDFKEKTLNEISDLIKQELTEGKALALSHTYANVRINHVINLWGADFNSEGNLEAIYVTDSDSNASIGMKKYYVGVNAAGKVAISAKEIEGDNIGAQVLGLFTLSTGQDIWNQTNLEHHHHHH , please?
Response given: 118

Batch request: Enzyme Activity Endpoint Assay (purified): Fc for each of the following proteins.
1. PRT-622 (protein) MQITSVWTKGVTPLTPEQFRYNNEDVIHAPYLAHQGWYDITKAFDGKDNLLCGAATAGNMLHWWFDQNKTEIEAYLSKHPEKQKIIFNNQELFDLKAAIDTKDSQTNSQLFNYFRDKAFPNLSARQLGVMPDLVLDMFINGYYLNVFKTQSTDVNRPYQDKDKRGGIFDAVFTRGDQTTLLTARHDLKNKTLKEISDIIKQELQSGRALALSHTYANVSISHVINLWGADFNSEGNLIAIYVTDSDANASIGMKKYFVGINAHGHVAISAKKIEGENIGAQVLGLFTLSSGKDIWQKLSLEHHHHHH
2. PRT-148 (protein) MANQEIRYSEVTPYHVTSVWTKGVTPPANFTQGEDVFHAPYVANQGWYDITKTFNGKDDLLCGAATAGNMLHWWFDQNKDQIKRYLEEHPEKQKINFNGEQMFDVKEAIDTKNHQLDSKLFEYFKEKAFPYLSTKHLGVFPDHVIDMFINGYRLSLTNHGPTPVKRQSKDPRGGIFDAVFTRGDQSKLLTSRHDFKEKNLKEISDLIKKELTEGKALGLSHTYANVRINHVINLWGADFDSNGNLKAIYVTDSDSNASIGMKKYFVGVNSAGKVAISAKEIKEDNIGAQVLGLFTLSTGQDSWNKTN
3. PRT-147 (protein) MANQEIRYSEVTPYHIKIVWTKGVTPPANFTQGEDVFHAPYVANQGWYDITKTFNGKDDLLCGAATAGNMLHWWFDQNKDQIKRYLEEHPEKQKINFNGEQMFDVKEAIDTKNHQLDSKLFEYFKEKAFPYLSTKHLGVFPDHVIDMFINGYRLSLTNHGPTPVKEGSKDPRGGIFDAVFTRGDQSKLLTSRHDFKEKTLNDISQLIKQELQSGKALGLSHTYANVRINHVINLWGADFDAEGNLEAIYVTDSDSNASIGMKKYFVGKNSAGKVAISAKEIKEDNIGAQVLGLFTLSTGQDSWNQTN

Response given:
423
203
206

Every entry's value here was drawn from patent US20250027068.
